Each recorded value in this set is attributed to paper PMC7999366.

Measured log10(IC50) values are reported for all entries that follow.
targetEntity: hGDP-MP (Homo sapiens)
Construct: His; made in house; host or cells: E. coli
Sequence (Q9Y5P6 whole entry): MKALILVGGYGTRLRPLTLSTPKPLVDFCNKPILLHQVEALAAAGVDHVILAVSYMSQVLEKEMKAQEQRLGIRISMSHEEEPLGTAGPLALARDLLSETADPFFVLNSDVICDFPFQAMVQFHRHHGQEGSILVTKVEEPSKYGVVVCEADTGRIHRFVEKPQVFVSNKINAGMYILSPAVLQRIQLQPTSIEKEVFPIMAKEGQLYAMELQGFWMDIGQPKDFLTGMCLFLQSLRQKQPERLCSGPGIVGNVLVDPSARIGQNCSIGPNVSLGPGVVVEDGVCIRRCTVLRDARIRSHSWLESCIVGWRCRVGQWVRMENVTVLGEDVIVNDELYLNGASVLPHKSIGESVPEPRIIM
testName: Enzyme inhibition assay on purified recombinant hGDP-MP (malachite green)
Type: biochemical
testParameters: 37 °C, 20 min, read-out: hGDP-MP IC50 (µM) ± SD
// do not treat as linear: log10 of IC50, unit µM

*Q* What does the record list as log10(IC50) for CCCCCCCCCCCc1cccc(O)c1C(=O)O [compound 5, anagigantic acid] ?
*A* 1.58

---

targetEntity: LiGDP-MP (Leishmania infantum, UniProt A4I048)
Sequence (A4I048 entry or part of it): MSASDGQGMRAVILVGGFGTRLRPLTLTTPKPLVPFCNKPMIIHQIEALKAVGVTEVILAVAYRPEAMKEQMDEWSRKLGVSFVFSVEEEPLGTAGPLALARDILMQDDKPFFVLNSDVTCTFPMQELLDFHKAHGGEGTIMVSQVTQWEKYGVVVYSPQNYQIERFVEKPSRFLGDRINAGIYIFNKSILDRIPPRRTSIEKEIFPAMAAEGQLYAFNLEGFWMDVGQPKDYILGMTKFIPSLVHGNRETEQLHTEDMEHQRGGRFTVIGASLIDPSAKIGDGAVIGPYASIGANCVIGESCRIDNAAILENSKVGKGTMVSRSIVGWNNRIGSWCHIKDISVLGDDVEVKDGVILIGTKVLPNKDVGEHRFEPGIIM
testName: Enzyme inhibition assay on purified recombinant LiGDP-MP (malachite green)
Type: biochemical
endpointName: IC50

*Q* Hello, I am looking for reported IC50 with LiGDP-MP (Leishmania infantum, UniProt A4I048) for CCCCCCCCCCCCCCCCOP(=O)([O-])OCC[N+](C)(C)C [Miltefosine, hexadecylphosphocholine, reference compound] . Could you help?
*A* > 250 µM

---

Measured CC50 at 48 h values are reported for all entries that follow.
testName: In vitro cytotoxicity on RAW 264.7 macrophages (resazurin)
Assay type: cell-based
testParameters: mouse, 48 h incubation, read-out: Cytotoxicity on RAW 264.7 CC50 (µM) ± SD

# count of solved cases: 3
compound	CC50 at 48 h
COc1cc(O)cc(CCCCCCC/C=C\CCCCCCCc2cc(O)cc(O)c2)c1 [compound 1]	34.4 µM
COc1cc(O)cc(CCCCCCCCC/C=C\CCCCCCCc2cc(O)cc(O)c2)c1 [compound 3]	31.8 µM
CCCC/C=C\CCCCCCCc1cccc(O)c1C(=O)O [compound 6]	> 100 µM

*Q* What does the record list as CC50 at 48 h for CCCC/C=C\CCCCCc1cccc(O)c1C(=O)O [compound 4, Khookerianic acid B] ?
*A* 83.1 µM

*Q* What does the record list as CC50 at 48 h for CCCCCCCCCCCCCc1cccc(O)c1C(=O)O [compound 7, 2-hydroxy-6-tridecylbenzoic acid] ?
*A* > 100 µM

*Q* What does the record list as CC50 at 48 h for CCCCCCCCCCCc1cccc(O)c1C(=O)O [compound 5, anagigantic acid] ?
*A* > 100 µM

---

Measured IC50 values are reported for all entries that follow.
targetEntity: LiGDP-MP (Leishmania infantum, UniProt A4I048)
testName: Enzyme inhibition assay on purified recombinant LiGDP-MP (malachite green)
Format: biochemical
testParameters: purified recombinant enzyme, 37 °C, 20 min; read-out: LiGDP-MP IC50 (µM) ± SD
Kindly answer with a numeric value in µM, unit omitted.

# count of solved cases: 5
compound	endpointName	valueReported
CCCCCCCCCCCCCc1cccc(O)c1C(=O)O [compound 7, 2-hydroxy-6-tridecylbenzoic acid]	IC50	16.9
CCCC/C=C\CCCCCc1cccc(O)c1C(=O)O [compound 4, Khookerianic acid B]	IC50	120
COc1cc(O)cc(CCCCCCCCC/C=C\CCCCCCCc2cc(O)cc(O)c2)c1 [compound 3]	IC50	2.3
CCCC/C=C\CCCCCCCc1cccc(O)c1C(=O)O [compound 6]	IC50	100
CCCCCCCCCCCc1cccc(O)c1C(=O)O [compound 5, anagigantic acid]	IC50	50.6

Kindly review the next compound as well.
*Q* What does the record list as IC50 for COc1cc(O)cc(CCCCCCCCCCCCCCCCc2cc(O)cc(O)c2)c1 [compound 2] ?
*A* 5.9

---

Tested on: L. infantum intramacrophage amastigotes
testName: In vitro antileishmanial evaluation on intramacrophage amastigotes (Giemsa counting in RAW 264.7)
Type: cell-based, Leishmania infantum
testParameters: CC50/IC50 on intramacrophage amastigotes
Measured Selectivity Index values are reported for all entries that follow.

chemicalStructure	endpointName	valueReported
CCCC/C=C\CCCCCc1cccc(O)c1C(=O)O	Selectivity Index	<0.8
CCCC/C=C\CCCCCCCc1cccc(O)c1C(=O)O	Selectivity Index	>2.3
COc1cc(O)cc(CCCCCCC/C=C\CCCCCCCc2cc(O)cc(O)c2)c1	Selectivity Index	<0.7

Kindly review the next compound as well.
*Q* What does the record list as Selectivity Index for COc1cc(O)cc(CCCCCCCCC/C=C\CCCCCCCc2cc(O)cc(O)c2)c1 ?
*A* <1.2

---

Measured IC50 values are reported for all entries that follow.
targetEntity: hGDP-MP (Homo sapiens)
Construct: His; made in house; host or cells: E. coli
testName: Enzyme inhibition assay on purified recombinant hGDP-MP (malachite green)
Format: biochemical
testParameters: 37 °C, 20 min, read-out: hGDP-MP IC50 (µM) ± SD
Kindly answer with a numeric value in µM, unit omitted.

# count of solved cases: 5
compound	IC50 / µM
CCCC/C=C\CCCCCCCc1cccc(O)c1C(=O)O [compound 6]	122
COc1cc(O)cc(CCCCCCC/C=C\CCCCCCCc2cc(O)cc(O)c2)c1 [compound 1]	1.3
CCCCCCCCCCCCCc1cccc(O)c1C(=O)O [compound 7, 2-hydroxy-6-tridecylbenzoic acid]	29
COc1cc(O)cc(CCCCCCCCC/C=C\CCCCCCCc2cc(O)cc(O)c2)c1 [compound 3]	1.9
CCCC/C=C\CCCCCc1cccc(O)c1C(=O)O [compound 4, Khookerianic acid B]	79.9

*Q* Hello, I am looking for reported IC50 with hGDP-MP (Homo sapiens) for COc1cc(O)cc(CCCCCCCCCCCCCCCCc2cc(O)cc(O)c2)c1 [compound 2] . Could you help?
*A* 13.7
